B1: ZBTB22 (parent)
chain: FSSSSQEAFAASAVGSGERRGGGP

Variants of: B1
Test: protein stability index of a GFP-peptide fusion (GPS, HEK-293T) (PSI 1-6); higher = more stable;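 further: lentivirally expressed fusions sorted by FACS into six bins by GFP to DsRed ratio, PSI derived from sequencing read proportions per bin multiplied by bin number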
Conditions: c terminus: a fixed tail appended
Kind request: treat 3 as inclusive, so protein stability index at 3 or higher is Condition met, anything lower is Condition not met.

For orientation, consider the following solved cases.
G22M	Condition not met
G23K	Condition met
A11K	Condition met

Now for a further variant.
Exercise: For this variant, is measured protein stability index 3 or higher? R19S
Key: Condition met

Cited source: the supplement of paper PMC10567573
